Attribution: ChEMBL document CHEMBL3301361

The molecules listed here are annotated with their solubility thermodynamic.
- protocol_summary: physchem
- test_context: pH 7.4 buffer
Write the number in µM without appending the unit.

C[C@@H]1CN(c2ncc(OCc3ccc(S(C)(=O)=O)cc3)cn2)CCN1C(=O)OC(C)(C)C
3.3
CC(C)c1cc(C(=O)N[C@@H](Cc2cccc(Cl)c2)C(=O)NCC#N)n(C)n1
47.9
NS(=O)(=O)c1cc(C2(O)NC(=O)c3ccccc32)ccc1Cl (stereo not given)
501
N#Cc1ccccc1COc1cc(OCCCN2CCCC2)ccc1C(=O)Nc1cccc(O)c1
363

Kindly consider the entry below.
Q: # input molecule: COCC(=O)NC/C=C/c1ccc2ncnc(Nc3ccc(Oc4ccc(C)nc4)c(C)c3)c2c1 ; wanted: its solubility thermodynamic
A: 1.1

====

- protocol_summary: physchem
- test_context: octan-1-ol/water, pH 7.4, LogD7.4
Output: class label from logD. Mapping: low end (below 2), middle (2 to below 3), high end (3 or more)

These solved cases illustrate the format of a correct answer.
CCC(c1nc2snc(C)c2c(=O)n1Cc1ccccc1)N(CCCN)C(=O)c1ccc(C)cc1 (stereo not given)
low end
O=C(NCC1CCCCC1)c1cc(-n2ncc(=O)[nH]c2=O)ccc1Cl
low end

Q: Class label required: CCC(c1nc2ccsc2c(=O)n1Cc1ccc(OC)cc1)N(CCCN)C(=O)c1ccc(C)cc1 (stereo not given)
A: middle

Q: Class label required: COc1ccc2c(C)cc(N[C@H]3CCC[C@H](NCc4ccsc4)C3)nc2c1
A: middle

Q: Class label required: O=C1NC(=O)/C(=C/c2ccc3c(c2)OC(F)(F)O3)S1
A: middle

Q: Class label required: Cc1ccc(C(=O)Nc2ccon2)cc1-n1cnc2ccc(N3CCN(C)CC3)cc2c1=O
A: low end

Q: Class label required: O=C1NC(=O)c2cc(OCc3ccccc3)ccc21
A: high end

Q: Class label required: O=C(CN1CCOCC1)Nc1ccc(-c2cccc3c(=O)cc(N4CCOCC4)oc23)cc1OCC1CC1
A: high end

Q: Class label required: Cc1ccc(C(=O)c2ccc(CC(=O)O)n2C)cc1
A: low end

Q: Class label required: COc1ccc2c(C)cc(=O)n(CCN3CCC(NCc4cc5c(cn4)OCCO5)CC3)c2c1
A: low end

Q: Class label required: Cc1ccc(NC(=O)c2ccoc2)cc1-n1cnc2ccc(N3CCN(C)CC3)cc2c1=O
A: middle

Q: Class label required: CC[C@H](NC(=O)c1c(O)c(-c2ccccc2)nc2ccccc12)c1ccccc1
A: high end

Q: Class label required: CC1CN(S(=O)(=O)c2ccccc2)CCN1Cc1cc(Cl)ccc1OCC(=O)O (stereo not given)
A: low end

Q: Class label required: O=C(NCCSCc1ccccc1)c1ccccc1
A: high end

Q: Class label required: CN(C)CCOc1ccc(-c2oc3ncnc(NC[C@@H]4CCCO4)c3c2-c2ccccc2)cc1
A: high end

Q: Class label required: Cc1cc(Cl)ccc1OC1CCN(C[C@H](O)CNC(=O)c2c[nH]c(=O)c3cc(S(C)(=O)=O)ccc23)CC1
A: middle

Q: Class label required: COC[C@H](C)Oc1cc(Oc2cc(F)cc(F)c2)cc(C(=O)Nc2ccc(C(=O)O)cn2)c1
A: low end

Q: Class label required: Oc1nc(S)nc2nc[nH]c12
A: low end

====

The compounds listed here are annotated with their logD.
- protocol_summary: physchem
- test_context: octan-1-ol/water, pH 7.4, LogD7.4
Would you mind answering with just the numeric figure?

Some compounds with recorded logD:
CCCCn1c(Cc2cc(OC)c(OC)c(OC)c2)nc2c(N)ncnc21
2.39
CS(=O)(=O)c1ccc2[nH]c3c(c2c1)CN(C(=O)[C@@H]1CCCC[C@H]1C(=O)NC1(C#N)CC1)CC3
1.5
Cc1nc(C)c(C(=O)N[C@@H](Cc2cccc(Cl)c2)C(=O)NCC#N)s1
2
COc1cc(OC2CCN(C)CC2)c2c(Nc3cccc4c3OCCO4)ncnc2c1
2.26
CC1(COc2ccc3c(c2)ncn3-c2ccc3cccc(N4CCC(N)CC4)c3n2)COC1
1.99

Q: # input compound: CNc1c(Cl)cnc2nc(-c3ccc(OCCN4CCOCC4)cc3)[nH]c12 ; wanted: its logD
A: 2.63

Q: # input compound: CC(=O)NCC(NC(=O)C1(N)CCN(c2ncnc3[nH]ccc23)CC1)c1ccc(Cl)cc1 (stereo not given) ; wanted: its logD
A: 2.4

Q: # input compound: NC1(C(=O)NC(CCCN2CCCC2)c2ccc(Cl)cc2)CCN(c2ncnc3[nH]ccc23)CC1 (stereo not given) ; wanted: its logD
A: 1.3

Q: # input compound: Cn1cnc(-c2ccccc2)c1-c1nc2c(N)ncnc2s1 ; wanted: its logD
A: 2.69

Q: # input compound: Oc1ccc(C2CNCCc3c2cc(O)c(O)c3Cl)cc1 (stereo not given) ; wanted: its logD
A: 0.87

====

- protocol_summary: physchem
- test_context: octan-1-ol/water, pH 7.4
Just a reminder that ties go to Not met: only logD strictly below 2 counts as Met.

These solved cases illustrate the format of a correct answer.
CNC1=Nc2ncccc2C(c2ncco2)=NC1c1cccs1 (stereo unspecified)
Met
Cc1cn(Cc2ccccc2)c(=O)[nH]c1=O
Met
Cc1ccccc1-n1c(Cn2cnc3c(N)ncnc32)nc2cccc(C)c2c1=O
Not met
CCOC(=O)c1c(C)n(Cc2ccco2)c2ccc(O)cc12
Not met
CCN(CC)C(=O)c1ccc(C(=C2CCNCC2)c2ccc(Cl)c(Cl)c2)cc1
Not met

Q: Does O=C(NCc1ccncc1)c1ccc(Oc2ccc(C#CC3(O)CN4CCC3CC4)cc2)cc1 (stereo unspecified) have logD strictly under 2?
A: Not met

====

- protocol_summary: in vitro
- test_context: human, plasma, PPB
The compounds listed here are annotated with their fraction unbound at 5 h.
Would you mind answering with just the numeric figure?

Some compounds with recorded fraction unbound at 5 h:
Cc1nc(C(F)F)c(C(N)=O)nc1-c1ccc([C@H]2CC[C@H](CC(=O)O)CC2)cc1
0.0544
CCOc1cc(CN2CCC(Nc3nc4cc(S(N)(=O)=O)ccc4o3)CC2)cc(OCC)c1N
0.299
O=c1cc(N2CCOCC2)nc2n(Cc3cccc(Cl)c3)ccn12
0.101

Kindly consider the entry below.
Q: # input compound: CC(C)C(NC(=O)c1ccccc1)C(=O)c1ccc([N+](=O)[O-])cc1 (centres undefined) ; wanted: its fraction unbound at 5 h
A: 0.0418

====

- protocol_summary: physchem
- test_context: pH 7.4 buffer
quantity: solubility thermodynamic (µM)
Write the number in µM without appending the unit.

O=C(c1cc(Cc2n[nH]c(=O)c3ccccc23)ccc1F)N1CCN(C(=O)C2CCOC2)CC1 (stereo not given)
380
CN(CCOc1ccc(C[C@H](Nc2ccccc2C(=O)c2ccccc2)C(=O)O)cc1)c1ccccn1
219

Kindly consider the entry below.
Q: # input compound: CS(=O)(=O)Cc1cc(N2CCOCC2)nc(-c2ccc3[nH]ccc3c2)n1 ; wanted: its solubility thermodynamic
A: 9.3

====

- protocol_summary: in vitro
- test_context: human, liver microsomes
quantity: microsomal CLint (µL/min/mg)
Write the number in µL/min/mg without appending the unit.

Some molecules with recorded microsomal CLint:
O=C(O)COc1cccc(N2CCC(CN3CCC(Oc4ccc(Cl)c(Cl)c4)CC3)CC2)c1
12
O=C(Nc1ccncc1)c1cccc2ccccc12
60.3
COc1ccc(CNCc2cccc(CCNC[C@H](O)c3ccc(O)c4[nH]c(=O)sc34)c2)cc1
62
O=C(NCc1ccccc1)c1cc(-c2ccco2)on1
70.8
N#CC1=C2C(=NC1=O)c1cccc3c(N4CCSCC4)ccc2c13
115

Kindly consider the entry below.
Q: # input molecule: C[C@]12CCC(=O)C=C1C=C[C@@H]1[C@@H]2CC[C@@]2(C)[C@H]1CC[C@@]21CCC(=O)O1 [CANRENONE] ; wanted: its microsomal CLint
A: 14.4

====

The molecules listed here are annotated with their hepatocyte CLint.
- protocol_summary: in vitro
- test_context: hepatocytes
Write the number in µL/min/1e6 cells without appending the unit.

N#Cc1c(O)c2c(-c3ccc(-c4ccccc4O)cc3)csc2[nH]c1=O
52.5
CSCCC(NC(=O)c1cnccn1)c1nc2ccccc2[nH]1 (stereo not given)
74
O=C(NCC12CC3CC(CC(C3)C1)C2)c1ccnc(NCC2CCNCC2)c1Cl
4
N#Cc1ccc(C(=O)Nc2ccc(-n3ccnc3)nc2)cc1
20.4
C[C@H](CO)Nc1[nH]c(SCc2ccccc2F)nc2nc(=O)sc1-2
28

Q: # input molecule: O=C(c1ccc(OCCN2CCCCC2)cc1)c1c(-c2ccc(O)cc2)sc2cc(O)ccc12 ; wanted: its hepatocyte CLint
A: 30

Q: # input molecule: Cc1cc(Oc2cc(S(=O)(=O)N3CCC[C@H](n4cc(C)c(=O)[nH]c4=O)C3)ccc2O)ccc1Cl ; wanted: its hepatocyte CLint
A: 20.4

Q: # input molecule: CS(=O)(=O)Nc1ccc(CCOCCCS(=O)(=O)CCNCCc2ccc(O)c3nc(O)sc23)cc1 ; wanted: its hepatocyte CLint
A: 105

Q: # input molecule: CCn1c(SCC(=O)Nc2cc(C)on2)nnc1-c1cccnc1 ; wanted: its hepatocyte CLint
A: 75.9
